compounds and their reported Papp at 2 h, 3 µM
assay protocol: Caco Permeability Assay
Assay type: in vitro ADME
protocol conditions: human, Caco-2, Caco-2 cells, 3 μM compound
# value in ×10⁻⁶ cm/s; strip the unit string

{"compound": "C[C@H](F)CNc1cc(-c2cnn3cc(Cl)cnc23)ncc1C(=O)NC[C@@H](F)C(C)(C)O [Example 61]", "units": "×10⁻⁶ cm/s", "Papp at 2 h, 3 µM": 19.7}
{"compound": "CC(C)(O)[C@H](F)CNC(=O)c1cnc(-c2cnn3cc(Cl)cnc23)cc1Nc1cnn(CC2CC2)c1 [Example 251]", "units": "×10⁻⁶ cm/s", "Papp at 2 h, 3 µM": 7.6}
{"compound": "CC(C)(O)[C@H](F)CNC(=O)c1cnc(-c2cnn3cc(C#N)cnc23)cc1NC1CCOCC1 [Example 90]", "units": "×10⁻⁶ cm/s", "Papp at 2 h, 3 µM": 2.8}
{"compound": "CC(C)n1cc(Nc2cc(-c3cnc4cc(C#N)cnn34)ncc2C(=O)NCCC(C)(C)O)cn1 [Example 287]", "units": "×10⁻⁶ cm/s", "Papp at 2 h, 3 µM": 1.8}
{"compound": "CC(C)(F)Cn1ccc(Nc2cc(-c3cnn4cc(Cl)cnc34)ncc2C(=O)NC[C@@H](F)C(C)(C)O)n1 [Example 229]", "units": "×10⁻⁶ cm/s", "Papp at 2 h, 3 µM": 11.3}

# input Quick one: Papp at 2 h, 3 µM for CC(C)Nc1cc(-c2cnn3cc(C#N)cnc23)ncc1C(=O)NCCC(C)(C)C#N [Example 169] ?
# output 14.2

# input Which Papp at 2 h, 3 µM is listed for CC(F)(F)Cn1ccc(Nc2cc(-c3cnn4cc(C#N)cnc34)ncc2C(=O)NC[C@@H](F)C(C)(C)O)n1 [Example 245] ?
# output 1.8

# input Quick one: Papp at 2 h, 3 µM for CC(C)Nc1cc(-c2cnc3cc(C#N)cnn23)ncc1C(=O)NCCc1ccccn1 [Example 216] ?
# output 23.9

# input Quick one: Papp at 2 h, 3 µM for CC(C)Nc1cc(-c2cnn3cc(Cl)cnc23)ncc1C(=O)NC[C@@H](F)C(C)(C)O [Example 1] ?
# output 24.8
